Attribution: PubChem BioAssay AID1259407

- Tested on: CCRIS mutagenicity, Ames/micronucleus/aberration tests
- ASSAY_TEXT: CCRIS mutagenicity studies
- ASSAY_CONTEXT: Test System: E. COLI; Strain/Indicator: WP2 UVRA; Metabolic Activation: NONE; Method: STANDARD PLATE
The source made the active and inactive calls. The rule behind the calls is not given here.
READOUT: mutagenic call

CN(C)c1ccc(N=Nc2ccccc2)cc1    inactive; negative
Nc1ccc(Cc2ccc(N)cc2)cc1    inactive; negative
Nc1ncn[nH]1    inactive; negative
CCc1cccc2c3c([nH]c12)C(C)(CC)OCC3 (stereo not given)    inactive; negative

Now consider a different compound.
**Query** Dear colleague, I am looking for the recorded mutagenic call of the following compound: O=[N+]([O-])c1ccc2c3c(cccc13)CC2
**Result** inactive; negative

---

- System: CCRIS mutagenicity, Ames/micronucleus/aberration tests
- ASSAY_TEXT: CCRIS mutagenicity studies
- ASSAY_CONTEXT: Test System: AMES SALMONELLA TYPHIMURIUM; Strain/Indicator: TA1535; Metabolic Activation: NONE; Method: STANDARD PLATE
Calls of active or inactive are those of the source. No rule for the calls is given here.
Respond with a class label; see YES for active, NO for inactive

Some solved cases for reference:
O=C1c2ccccc2C(=O)N1SC(Cl)(Cl)Cl    YES
CC(=O)O[C@H]1C[C@@H]2C(COC(=O)CC(C)C)=CO[C@@H](OC(=O)CC(C)C)[C@@H]2[C@@]12CO2    NO
CCC(=O)Oc1ccc(/C(CC)=C(\CC)c2ccc(OC(=O)CC)cc2)cc1    NO

Proceed to the following item.
**Query** Which outcome did this test record for the compound O=S(O)(O)=S ?
**Result** NO

---

- Tested on: CCRIS mutagenicity, Ames/micronucleus/aberration tests
- ASSAY_TEXT: CCRIS mutagenicity studies
- ASSAY_CONTEXT: Test System: AMES SALMONELLA TYPHIMURIUM; Strain/Indicator: TA100; Metabolic Activation: HAMSTER, LIVER, S-9, AROCLOR 1254 (30%); Method: PREINCUBATION
The source made the active and inactive calls. The rule behind the calls is not given here.
Respond with a class label; see active, inactive

O=C1c2c(O)cccc2Cc2cccc(O)c21    inactive

**Query** Which outcome did this test record for the compound ON=C1CCCCC1 ?
**Result** inactive

**Query** Which outcome did this test record for the compound c1ccc(Nc2ccc(Nc3ccccc3)cc2)cc1 ?
**Result** inactive

**Query** Which outcome did this test record for the compound Nc1nc2ccccc2[nH]1 ?
**Result** inactive

**Query** Which outcome did this test record for the compound CN(C)c1ccc(C(=N)c2ccc(N(C)C)cc2)cc1 ?
**Result** inactive

**Query** Which outcome did this test record for the compound CCC(CO)[N+](=O)[O-] (configuration not stated) ?
**Result** inactive

**Query** Which outcome did this test record for the compound N#CCC#N ?
**Result** inactive

**Query** Which outcome did this test record for the compound CCCCCCCC(=O)O ?
**Result** inactive

**Query** Which outcome did this test record for the compound CC(=O)NBr ?
**Result** inactive

---

- Tested on: CCRIS mutagenicity, Ames/micronucleus/aberration tests
- ASSAY_TEXT: CCRIS mutagenicity studies
- ASSAY_CONTEXT: Test System: Mouse lymphoma; Strain/Indicator: L5178Y (tk+/tk-); Metabolic Activation: Rat, Liver, S-9, Aroclor 1254; Method: Suspension/plate
Calls of active or inactive are those of the source. The rule behind the calls is not given here.
READOUT: mutagenic call

Fc1ccccc1-c1ccccc1    inactive; negative
CN(C)c1ccc2nc3ccc(=[N+](C)C)cc-3sc2c1    active; positive
C[Si]1(C)O[Si](C)(C)O[Si](C)(C)O[Si](C)(C)O1    inactive; negative
CNC(=O)OCc1nc(SC)n(C)c1COC(=O)NC    active; positive
CCC(C)Cl (stereo not drawn)    inactive; negative

**Query** Dear colleague, I am looking for the recorded mutagenic call of the following molecule: Nc1nc2c(ncn2[C@@H]2C=C[C@H](CO)C2)c(=O)[nH]1
**Result** inactive; negative

**Query** Dear colleague, I am looking for the recorded mutagenic call of the following molecule: ClNc1nc(NCl)nc(NCl)n1
**Result** active; positive

**Query** Dear colleague, I am looking for the recorded mutagenic call of the following molecule: CCCc1cc(=O)oc2c3c(c4c(c12)OC(C)(C)C=C4)O[C@H](C)[C@@H](C)[C@H]3O
**Result** inactive; negative

**Query** Dear colleague, I am looking for the recorded mutagenic call of the following molecule: C=C[Si](OCC)(OCC)OCC
**Result** inactive; negative

---

- Test system: CCRIS mutagenicity, Ames/micronucleus/aberration tests
- ASSAY_TEXT: CCRIS mutagenicity studies
- ASSAY_CONTEXT: Test System: AMES SALMONELLA TYPHIMURIUM; Strain/Indicator: TA100; Metabolic Activation: NONE; Method: PREINCUBATION
Active and inactive are the calls of the source. The rule behind the calls is not given here.
Respond with a class label; see True (active), False (inactive)

O=C(OC[C@@H]1O[C@H](OC(=O)c2cc(O)c(O)c(OC(=O)c3cc(O)c(O)c(O)c3)c2)[C@@H](OC(=O)c2cc(O)c(O)c(OC(=O)c3cc(O)c(O)c(O)c3)c2)[C@H](OC(=O)c2cc(O)c(O)c(OC(=O)c3cc(O)c(O)c(O)c3)c2)[C@H]1OC(=O)c1cc(O)c(O)c(OC(=O)c2cc(O)c(O)c(O)c2)c1)c1cc(O)c(O)c(OC(=O)c2cc(O)c(O)c(O)c2)c1    False
C=C1C/C(=C/C)C(=O)O[C@@H]2CCN3CC=C(COC(=O)[C@@]1(O)CO)[C@H]23    False
CCSc1cc(Cc2ccc(N)c(SCC)c2)ccc1N    False

**Query** Which outcome did this test record for the compound CCc1c2ccccc2cc2c3c(ccc12)[C@H](O)[C@@H](O)[C@H]1O[C@@H]31 ?
**Result** True

**Query** Which outcome did this test record for the compound COc1cc(OC)c(OC)cc1C=O ?
**Result** False

**Query** Which outcome did this test record for the compound Cc1c(N=[N+]([O-])c2cccc([N+](=O)[O-])c2C)cccc1[N+](=O)[O-] ?
**Result** False

**Query** Which outcome did this test record for the compound NN=C(N)N ?
**Result** False

**Query** Which outcome did this test record for the compound Nc1ncnc2c1ncn2-c1ccc([N+](=O)[O-])cc1[N+](=O)[O-] ?
**Result** True

**Query** Which outcome did this test record for the compound O=C(O)c1ccc(O)cc1 ?
**Result** False

---

- Tested on: CCRIS mutagenicity, Ames/micronucleus/aberration tests
- ASSAY_TEXT: CCRIS mutagenicity studies
- ASSAY_CONTEXT: Test System: AMES SALMONELLA TYPHIMURIUM; Strain/Indicator: TA98; Metabolic Activation: RAT, LIVER, S-9, KANECHLOR 500; Method: PREINCUBATION
The source made the active and inactive calls. The rule behind the calls is not given here.
Respond with a class label; see active, inactive

Some solved cases for reference:
Nc1c(Br)cc([N+](=O)[O-])cc1[N+](=O)[O-]    active
Cc1cccc(C)c1[N+](=O)[O-]    inactive

Proceed to the following item.
**Query** Which outcome did this test record for the molecule CC(=O)Nc1cccc2cccnc12 ?
**Result** inactive

---

- System: CCRIS mutagenicity, Ames/micronucleus/aberration tests
- ASSAY_TEXT: CCRIS mutagenicity studies
- ASSAY_CONTEXT: Test System: AMES SALMONELLA TYPHIMURIUM; Strain/Indicator: TA98; Metabolic Activation: NONE; Method: STANDARD PLATE
The source made the active and inactive calls. The rule behind the calls is not given here.
Respond with a class label; see true for active, false for inactive

COc1c(OC)c2occc2c2oc(=O)ccc12    false

**Query** Which outcome did this test record for the molecule [Cl][Pd-2]([Cl])([Cl])[Cl] ?
**Result** false

**Query** Which outcome did this test record for the molecule C=C(Cl)Cl ?
**Result** false

**Query** Which outcome did this test record for the molecule c1ccc2c(c1)ccc1[nH]c3ccc4ccccc4c3c12 ?
**Result** false

---

- System: CCRIS mutagenicity, Ames/micronucleus/aberration tests
- ASSAY_TEXT: CCRIS mutagenicity studies
- ASSAY_CONTEXT: Test System: AMES SALMONELLA TYPHIMURIUM; Strain/Indicator: TA100(NR); Metabolic Activation: NONE; Method: PREINCUBATION
Calls of active or inactive are those of the source. How the calls were made is not given here.
Respond with a class label; see active, inactive

Some solved cases for reference:
CC(=O)Nc1ccc(Oc2ccc([N+](=O)[O-])cc2)cc1    inactive
Nc1ccc(N)cc1    active

**Query** Which outcome did this test record for the compound Nc1ncnc2c1ncn2-c1ccc([N+](=O)[O-])cc1[N+](=O)[O-] ?
**Result** inactive

**Query** Which outcome did this test record for the compound CCCC(=O)OCc1ccc([N+](=O)[O-])cc1 ?
**Result** inactive

**Query** Which outcome did this test record for the compound O=[N+]([O-])c1ccccc1SS/C(Cl)=C(\Cl)C(Cl)=C(Cl)Cl ?
**Result** active
